# System: anaethestized dog
# test details: Action on femoral delivery, aortal pressure and cardiac rhythm in the anaesthetized dog
# Format: in vivo
# stated conditions: anaesthetized dog, i.v.
readout label: Cardiac frequency (in words)

compound | target desc | value reported
O=C1C=C2CCCCC2N1c1cccc(OCCN2CCCCC2)c1 (centres unmarked) | anaethestized dog | tachycardia
CN(C)CCOc1cccc(N2C(=O)C=C3CCCCC32)c1 (centres unmarked) | anaethestized dog | tachycardia

---

# test details: Toxicity, intravenous in the mouse
# stated conditions: in vivo, i.v.
# Method: The toxicities of the various compound were determined intravenously in the mouse.
readout label: log10(LD50) (log10 of the value in mg/kg)
Field: value | Transform: log10 | Quantity: LD50 | Unit: mg/kg

Previously resolved entries follow.
molecule | log10(LD50)
O=C1C=C2CCCCC2N1c1cccc(OCCN2CCOCC2)c1 (stereo not shown) [Example 9] | 2.23
CC(C)N(CCOc1ccc(N2C(=O)C=C3CCCCC32)cc1Cl)C(C)C (stereo not shown) [Example 18] | 2.18
CN(C)CCOc1ccc(N2C(=O)C=C3CCCCC32)cc1 (stereo not shown) [Example 5] | 1.95
O=C1C=C2CCCCC2N1c1ccc(OCCN2CCCCC2)cc1 (stereo not shown) [Example 6] | 1.60
CN(C)CCOc1cccc(N2C(=O)C=C3CCCCC32)c1 (stereo not shown) [Example 12] | 1.44

Query: Entry under review: CC(C)N(CCOc1ccc(N2C(=O)C=C3CCCCC32)cc1)C(C)C (stereo not shown) [Example 7] . Reported log10(LD50)?
Result: 1.93

Query: And what about the molecule O=C1C(c2ccccc2)=C2CCCCC2N1c1ccc(OCCN2CCOCC2)cc1 (stereo not shown) [Example 21] ?
Result: 1.74

Query: What about CCN(CC)CCOc1ccc(N2C(=O)C=C3CCCCC32)cc1 (stereo not shown) [Example 1] ?
Result: 2.18

---

# EC20 listing for each entry below
# Tested on: isolated auricle
# test details: Cardiac action on the isolated auricle (Trevan preparation): amplitude of contractions
# stated conditions: arrows for diminution/increase are drawings, 0 = inactive, read-out: Action on the isolated auricle: minimum concentration producing a variation of 20% in amplitude of contractions
Quick reminder: number only, in µg/mL, skip the unit.

# example entries with known answers
compound | uom | value reported
CCN(CC)CCOc1cccc(N2C(=O)C=C3CCCCC32)c1 (centres unmarked) | µg/mL | 10
CN(C)CCOc1cccc(N2C(=O)C=C3CCCCC32)c1 (centres unmarked) | µg/mL | 10
O=C1C=C2CCCCC2N1c1ccc(OCCN2CCCCC2)c(Cl)c1 (centres unmarked) | µg/mL | 10
CC(C)N(CCOc1cccc(N2C(=O)C=C3CCCCC32)c1)C(C)C (centres unmarked) | µg/mL | 5
CCN(CC)CCOc1ccc(N2C(=O)C(c3ccccc3)=C3CCCCC32)cc1 (centres unmarked) | µg/mL | 2

Query: Which EC20 is reported for this compound? CN(C)CCCOc1ccc(N2C(=O)C=C3CCCCC32)cc1 (centres unmarked)
Result: 10

Query: Item: CC(C)N(CCOc1ccc(N2C(=O)C=C3CCCCC32)cc1)C(C)C (centres unmarked)
Result: 10

Query: Request: CN(C)CCOc1ccc(N2C(=O)C=C3CCCCC32)cc1Cl (centres unmarked)
Result: 5

Query: // repeat for CN(C)CCOc1ccc(N2C(=O)C(c3ccccc3)=C3CCCCC32)cc1 (centres unmarked) and report
Result: 20

Query: Same question, O=C1C=C2CCCCC2N1c1cccc(OCCN2CCCCC2)c1 (centres unmarked) this time
Result: 5

Query: Same question, O=C1C(c2ccccc2)=C2CCCCC2N1c1ccc(OCCN2CCOCC2)cc1 (centres unmarked) this time
Result: 20

Query: Entry to check: O=C1C=C2CCCCC2N1c1ccc(OCCN2CCCCC2)cc1 (centres unmarked)
Result: 10

Query: Another compound to check: CN(C)CCOc1ccc(N2C(=O)C=C3CCCCC32)cc1 (centres unmarked)
Result: 50

Query: Try O=C1C=C2CCCCC2N1c1cccc(OCCN2CCOCC2)c1 (centres unmarked) next.
Result: 50

Query: Also CCN(CC)CCOc1ccc(N2C(=O)C=C3CCCCC32)cc1 (centres unmarked) , if possible.
Result: 20

Query: # repeat for CC(C)N(CCOc1ccc(N2C(=O)C=C3CCCCC32)cc1Cl)C(C)C (centres unmarked)
Result: 5

Query: Similarly, CCN(CC)CCOc1ccc(N2C(=O)C=C3CCCCC32)cc1Cl (centres unmarked) ?
Result: 5
